- system_under_test: AGO2 L192P (Homo sapiens, UniProt Q9UKV8 1-859, L192P;S387D;S824A;S828D;S831D;S834A)
- Sequence (Q9UKV8 whole entry L192P/S387D/S824A/S828D/S831D/S834A): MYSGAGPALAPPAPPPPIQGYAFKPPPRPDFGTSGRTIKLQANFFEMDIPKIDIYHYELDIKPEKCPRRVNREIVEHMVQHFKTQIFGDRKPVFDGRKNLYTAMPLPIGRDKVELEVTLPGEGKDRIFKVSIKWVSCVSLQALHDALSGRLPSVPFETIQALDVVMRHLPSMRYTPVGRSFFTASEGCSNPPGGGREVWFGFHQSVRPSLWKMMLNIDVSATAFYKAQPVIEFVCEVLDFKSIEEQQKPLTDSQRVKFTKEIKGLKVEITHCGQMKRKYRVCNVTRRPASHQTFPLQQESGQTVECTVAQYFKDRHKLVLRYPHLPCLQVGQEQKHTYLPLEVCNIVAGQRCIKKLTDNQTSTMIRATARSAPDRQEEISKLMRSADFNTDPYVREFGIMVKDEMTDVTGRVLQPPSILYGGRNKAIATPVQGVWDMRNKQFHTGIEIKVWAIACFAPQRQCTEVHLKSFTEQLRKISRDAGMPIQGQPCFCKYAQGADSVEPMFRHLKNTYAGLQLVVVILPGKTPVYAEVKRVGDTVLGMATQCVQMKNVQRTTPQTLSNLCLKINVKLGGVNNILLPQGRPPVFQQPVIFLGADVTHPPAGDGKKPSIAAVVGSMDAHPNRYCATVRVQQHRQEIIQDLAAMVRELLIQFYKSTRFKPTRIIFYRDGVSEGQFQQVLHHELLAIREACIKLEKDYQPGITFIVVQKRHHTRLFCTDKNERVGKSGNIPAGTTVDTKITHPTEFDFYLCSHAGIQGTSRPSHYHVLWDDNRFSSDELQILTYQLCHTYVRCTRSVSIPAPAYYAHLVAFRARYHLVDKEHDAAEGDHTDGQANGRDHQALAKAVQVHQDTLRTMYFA
- assay_procedure: RNA Bind-n-Seq (nitrocellulose filter binding and sequencing); miR-122 guide loaded in AGO2; 60 min incubation; 30 mM Tris pH 8.0, 100 mM potassium acetate, 2 mM magnesium acetate, 0.5 mM TCEP, 0.005% NP-40, 0.01 mg/ml yeast tRNA; 3 nM AGO2-miR-122, 100 nM RNA library; 60; high values mean tight binding
- assay_context: protein: recombinant; tags: His6 (N-terminal, pFastBac HTA)
Reported binding signal values for the following binders.

In the examples that follow, each entry is paired with its recorded binding signal.
ATACTTCG (ssRNA, constant regions annealed to DNA blockers; guide miR-122 5' phosphate) RNA 1: GAGUUCUACAGUCCGACGAUCCCAACAUACUUCGCACCUGGAAUUCUCGGGUGCCAA RNA 2: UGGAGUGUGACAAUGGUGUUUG DNA 1: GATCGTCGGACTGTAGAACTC DNA 2: TTGGCACCCGAGAATTCCA = 0.406 fold enrichment over input
ACGTTCTA (ssRNA, constant regions annealed to DNA blockers; guide miR-122 5' phosphate) RNA 1: GAGUUCUACAGUCCGACGAUCCCAACACGUUCUACACCUGGAAUUCUCGGGUGCCAA RNA 2: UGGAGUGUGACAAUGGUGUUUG DNA 1: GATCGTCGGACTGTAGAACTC DNA 2: TTGGCACCCGAGAATTCCA = 0.434 fold enrichment over input
GCACCCTG (ssRNA, constant regions annealed to DNA blockers; guide miR-122 5' phosphate) RNA 1: GAGUUCUACAGUCCGACGAUCCCAACGCACCCUGCACCUGGAAUUCUCGGGUGCCAA RNA 2: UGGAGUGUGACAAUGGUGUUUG DNA 1: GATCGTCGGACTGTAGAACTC DNA 2: TTGGCACCCGAGAATTCCA = 0.416 fold enrichment over input

Would you kindly look at the next entry?
Please look up its binding signal: ATGTCTTG (ssRNA, constant regions annealed to DNA blockers; guide miR-122 5' phosphate) RNA 1: GAGUUCUACAGUCCGACGAUCCCAACAUGUCUUGCACCUGGAAUUCUCGGGUGCCAA RNA 2: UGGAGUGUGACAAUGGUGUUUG DNA 1: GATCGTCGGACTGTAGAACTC DNA 2: TTGGCACCCGAGAATTCCA
0.357 fold enrichment over input
